# STUDY TARGET: catalytic domain (JH1, amino acids 826-1132) of human JAK2 (Homo sapiens)
# Construct: catalytic domain (JH1, amino acids 826-1132) of human JAK2; purchased Carna Biosciences 08-445-20N; host or cells: baculovirus expression system
# Sequence (O60674 826-1132): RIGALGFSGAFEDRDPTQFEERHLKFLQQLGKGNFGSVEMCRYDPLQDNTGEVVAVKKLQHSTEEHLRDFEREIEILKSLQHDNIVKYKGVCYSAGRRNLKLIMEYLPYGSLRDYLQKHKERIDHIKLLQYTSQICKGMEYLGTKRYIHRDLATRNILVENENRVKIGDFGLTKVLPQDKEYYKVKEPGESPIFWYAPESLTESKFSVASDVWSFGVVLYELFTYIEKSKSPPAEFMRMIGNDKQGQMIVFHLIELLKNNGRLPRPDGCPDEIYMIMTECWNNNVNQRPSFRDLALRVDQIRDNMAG
# MEASUREMENT DESCRIPTION: JAK2 LanthaScreen JH1 Binding Assay
# TEST CONDITIONS: 2 hours at 25° C.
Structures can show the parent of a compound that is named as a salt.
OBSERVATION TYPE: IC50

| MOLECULE | OBSERVATION TYPE | MEASURED VALUE |
| --- | --- | --- |
| CCS(=O)(=O)N1CC2(C1)CC1(C2)C(=O)N(C)c2cnc3[nH]c(-c4cnn(CC5CC5)c4)c(-c4ccc5c(cnn5C)c4)c3c21 [Example 87, trifluoroacetate salt] | IC50 | 1250 to 2500 nM |
| CN1C(=O)C2(CCN(C3(CC#N)CCC3)CC2)c2c1cnc1[nH]c(-c3cnn(CC(C)(C)O)c3)c(-c3ccc4c(cnn4C)c3)c21 [Example 32, trifluoroacetate salt] | IC50 | 100 to 500 nM |
| CN1C(=O)C2(CCCC2)c2c1cnc1[nH]c(-c3cnn(Cc4ccncc4)c3)c(-c3ccc4c(cnn4C)c3)c21 [Example 8, trifluoroacetate salt] | IC50 | 1250 to 2500 nM |
| CCCC(=O)N1CCC2(CC1)CC1(C2)C(=O)N(C)c2cnc3[nH]c(C4=CCC(C(=O)N(C)C)CC4)c(-c4ccc5c(cnn5C)c4)c3c21 (racemic) [Example 63, trifluoroacetate salt] | IC50 | > 2500 nM |
| CC(=O)N1CCC(n2cc(-c3[nH]c4ncc5c(c4c3-c3ccc4c(cnn4C)c3)C3(CCN(C4(CC#N)CCC4)CC3)C(=O)N5C)cn2)CC1 [Example 41, trifluoroacetate salt] | IC50 | 100 to 500 nM |
| CCNC(=O)NC1CC(CC#N)(N2CCC3(CC2)C(=O)N(C)c2cnc4[nH]c(-c5cnn(C)c5)c(-c5ccccc5)c4c23)C1 (stereo not drawn) [Example 28, trifluoroacetate salt] | IC50 | 100 to 500 nM |
| CN1C(=O)C2(Cc3ccccc3C2)c2c1cnc1[nH]c(-c3ccc(CN4CCC(S(C)(=O)=O)CC4)cc3)cc21 | IC50 | > 2500 nM |
| CCS(=O)(=O)N1CC2(C1)CC1(C2)C(=O)N(C)c2cnc3[nH]c(-c4cnn5c4CCC5)c(-c4ccc5c(cnn5C)c4)c3c21 [Example 94, trifluoroacetate salt] | IC50 | > 2500 nM |
| COC(=O)N1CC2(N3CCC4(CC3)C(=O)N(C)c3cnc5[nH]c(-c6cnn(C)c6)c(-c6ccc7c(cnn7C)c6)c5c34)CC1C2 | IC50 | 1250 to 2500 nM |
| CCS(=O)(=O)N1CC2(C1)CC1(C2)C(=O)N(C)c2cnc3[nH]c(-c4cnn(CC5CCOCC5)c4)c(-c4ccc5c(cnn5C)c4)c3c21 [Example 97, trifluoroacetate salt] | IC50 | 1250 to 2500 nM |
| CN1C(=O)C2(CCN(CC3(CC#N)CC3)C2)c2c1cnc1[nH]c(-c3cnn4cccnc34)c(-c3ccc4c(cnn4C)c3)c21 (racemic) [Example 68, trifluoroacetate salt] | IC50 | > 2500 nM |
| CN1C(=O)C2(CCOC2)c2c1cnc1[nH]c(-c3ccc(CN4CCC(S(C)(=O)=O)CC4)cc3)c(-c3ccccc3)c21 (racemic) [Example 2, trifluoroacetate salt] | IC50 | > 2500 nM |
| CN1C(=O)C2(CCOCC2)c2c1cnc1[nH]c(-c3ccc(CN4CCC(S(C)(=O)=O)CC4)cc3)c(-c3ccccc3)c21 | IC50 | 1250 to 2500 nM |
| CN1C(=O)C2(CCN(C3(CC#N)CCC3)CC2)c2c1cnc1[nH]c(C3=CCC(C(=O)N4CCOCC4)CC3)c(-c3ccc4c(cnn4C)c3)c21 (racemic) [Example 34, trifluoroacetate salt] | IC50 | 500 to 1250 nM |
| CC(=O)N1C2CCC1CC1(C2)C(=O)N(C)c2cnc3[nH]c(-c4ccc(CN5CCC(S(C)(=O)=O)CC5)cc4)c(-c4ccccc4)c3c21 (stereo not drawn) [Example 13, trifluoroacetate salt] | IC50 | 1250 to 2500 nM |
| CO[C@H]1CC[C@@](CC#N)(N2CCC3(CC2)C(=O)N(C)c2cnc4[nH]c(-c5cnn(C)c5)c(-c5ccc6c(cnn6C)c5)c4c23)CC1 (single isomer, unassigned) [Example 75b] | IC50 | 500 to 1250 nM |
| O=C(O)C(F)(F)F.[2H]C([2H])([2H])N1C(=O)C2(CC3(CN(S(=O)(=O)CC)C3)C2)c2c1cnc1[nH]c(-c3cnn(CC)c3)c(-c3ccc(OC)cc3)c21 | IC50 | 500 to 1250 nM |
| CN1C(=O)C2(CCN(C3(CC#N)CCC3)CC2)c2c1cnc1[nH]c(-c3cnn(CCN4CCOCC4)c3)c(-c3ccc4c(cnn4C)c3)c21 [Example 38, trifluoroacetate salt] | IC50 | 100 to 500 nM |
| CN1C(=O)C2(CCN(C3(CC#N)CCC3)CC2)c2c1cnc1[nH]c(-c3cnn(C(C)(C)CO)c3)c(-c3ccc4c(cnn4C)c3)c21 [Example 37, trifluoroacetate salt] | IC50 | 100 to 500 nM |
| C=Cc1c(-c2cnn(C)c2)[nH]c2ncc3c(c12)C1(CCN(c2ccncn2)CC1)C(=O)N3C [Example 18, trifluoroacetate salt] | IC50 | > 2500 nM |
| CN1C(=O)C2(CCN(C(C)(C)C3CNC3)CC2)c2c1cnc1[nH]c(-c3cnn(C)c3)c(-c3ccc4c(cnn4C)c3)c21 | IC50 | 500 to 1250 nM |
